Sourced from ChEMBL document CHEMBL1140267

Assay: Percent decrease in plasma glucose level of wistar rat was determined at 30 mg/kg dosage of the compound
Assay type: ADME, organism-based
Design: dose 30 mg/kg
Settings: in vivo
Binary label based on Decrease with cut-off 60%: below gives Fulfilled, not below gives Not fulfilled.

Observe how each entry below is paired with its result.
In [3]: df
Out[3]:
                                   molecule  classification
0  Cc1cc2c(cc1C)N(CCCOc1ccc(/C=C3/SC(=O)NC3=O)cc1)C(c1ccccc1)C(=O)N2 (configuration not stated)       Fulfilled
1  CN(CCOc1ccc(CC2SC(=O)NC2=O)cc1)c1ccccn1 (configuration not stated) [ROSIGLITAZONE]   Not fulfilled

I'd appreciate it if you could check whether Cc1cc2c(cc1C)N(CCOc1ccc(/C=C3/SC(=O)NC3=O)cc1)C(c1ccccc1)C(=O)N2 (configuration not stated) has Decrease smaller than 60%.
Fulfilled

I'd appreciate it if you could check whether Cc1cc2c(cc1C)N(CCCOc1ccc(/C=C3/SC(=O)NC3=O)cc1)CC(=O)N2 has Decrease smaller than 60%.
Not fulfilled

I'd appreciate it if you could check whether Cc1cc2c(cc1C)N(CCOc1ccc(/C=C3/SC(=O)NC3=O)cc1)CC(=O)N2 has Decrease smaller than 60%.
Not fulfilled

I'd appreciate it if you could check whether Cc1cc2c(cc1C)N(CCCOc1ccc(/C=C3/SC(=O)NC3=O)cc1)C(C)C(=O)N2 (configuration not stated) has Decrease smaller than 60%.
Fulfilled
